These entries and their values trace back to ChEMBL document CHEMBL5036318.

target: Stimulator of interferon genes protein (Homo sapiens, UniProt Q86WV6); test: Activation of wild-type human STING expressed in HEK293T cells co-expressing IRF3-activated ISRE assessed as IRF3 reporter activation measured after 30 mins by luciferase reporter gene assay; assay type: cell-based
Sequence (Q86WV6 whole entry): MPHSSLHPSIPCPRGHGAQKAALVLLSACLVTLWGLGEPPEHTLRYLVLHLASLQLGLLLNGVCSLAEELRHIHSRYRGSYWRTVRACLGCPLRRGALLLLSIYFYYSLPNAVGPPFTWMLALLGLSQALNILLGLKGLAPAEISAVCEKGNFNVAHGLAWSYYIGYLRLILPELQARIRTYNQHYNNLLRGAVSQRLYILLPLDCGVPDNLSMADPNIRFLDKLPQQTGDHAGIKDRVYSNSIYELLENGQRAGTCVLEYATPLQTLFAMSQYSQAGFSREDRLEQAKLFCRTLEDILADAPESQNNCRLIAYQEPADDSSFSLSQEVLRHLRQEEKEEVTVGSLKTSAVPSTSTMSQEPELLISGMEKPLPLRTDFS
pEC50: −log10 of the molar value.
Observed property: pEC50

Worked cases, answers included:
{"Compound structure": "CC(C)OC(=O)OCO[P@]1(=O)OC[C@H]2O[C@@H](n3cnc4c(N)ncnc43)[C@H](F)[C@@H]2OP(=O)(O)OC[C@H]2O[C@@H](n3cnc4c(N)ncnc43)[C@H](F)[C@@H]2O1", "Observed property": "pEC50", "Numeric result": 5.71}
{"Compound structure": "Nc1ncnc2c1ncn2[C@@H]1O[C@@H]2CO[P@@](=O)(OCOC(=O)c3ccccc3)O[C@H]3[C@@H](F)[C@H](n4cnc5c(N)ncnc54)O[C@@H]3COP(=O)(O)O[C@H]2[C@H]1F", "Observed property": "pEC50", "Numeric result": 5.51}
{"Compound structure": "CC(C)(C)C(=O)OCS[P@@]1(=O)OC[C@H]2O[C@@H](n3cnc4c(N)ncnc43)[C@H](F)[C@@H]2O[P@](=O)(SCOC(=O)C(C)(C)C)OC[C@H]2O[C@@H](n3cnc4c(N)ncnc43)[C@H](F)[C@@H]2O1", "Observed property": "pEC50", "Numeric result": 7.40}

1 = Nc1ncnc2c1ncn2[C@@H]1O[C@@H]2COP(=O)(O)O[C@H]3[C@@H](F)[C@H](n4cnc5c(N)ncnc54)O[C@@H]3COP(=O)(O)O[C@H]2[C@H]1F
2 = Nc1ncnc2c1ncn2[C@@H]1O[C@@H]2CO[P@](=O)(S)O[C@H]3[C@@H](F)[C@H](n4cnc5c(N)ncnc54)O[C@@H]3CO[P@](=O)(S)O[C@H]2[C@H]1F
Input: Lab note: check whether 1 or 2 has the lower measured pEC50. Identify your pick by its label.
Output: 1
(1: 4.02, 2: 5.64)
